Residues, ends and D or L forms follow the SMILES beside them. *: point of attachment. Trt = c1ccc(C(c2ccccc2)(c2ccccc2)*)cc1; Boc = CC(C)(C)OC(=O)*; NHNH2 = NN*
The following compounds are listed with their measured melting point values.

CC1(C)CC(Nc2nc(N(C3CC(C)(C)NC(C)(C)C3)C3CC(C)(C)NC(C)(C)C3)nc(N(C3CC(C)(C)NC(C)(C)C3)C3CC(C)(C)NC(C)(C)C3)n2)CC(C)(C)N1    318 to 320 °C
CC(C)=CCC/C(C)=C/CC/C(C)=C/CC/C=C(\C)CC/C=C(\C)CCC=C(C)C    -5 °C
Cc1ccc(S(=O)(=O)N2CCN(S(=O)(=O)c3ccc(C)cc3)CCN(S(=O)(=O)c3ccc(C)cc3)CC(CC(C)C)N(S(=O)(=O)c3ccc(C)cc3)CCN(S(=O)(=O)c3ccc(C)cc3)CC2)cc1 (stereo unspecified)    142 to 145 °C
CCC(CO)Sc1nc(Nc2ccc(S(C)(=N)=O)cc2)ncc1Br (mixture of isomers)    175 to 180 °C
Cn1cncc1C(O)(c1ccoc1)c1ccc2c(c1)c(-c1cccc(Cl)c1)cc1nnnn12 (stereo unspecified)    188 °C

Prompt: Which melting point is listed for CC(C)CC(NC(=O)OC(C)(C)C)C(=O)NCC(=O)NCC(=O)NC(C)C(=O)NCC(=O)NC(CSC(c1ccccc1)(c1ccccc1)c1ccccc1)C(=O)NC(CCCCNC(=O)OC(C)(C)C)C(=O)NC(CC(N)=O)C(=O)NC(Cc1ccccc1)C(=O)NC(Cc1ccccc1)C(=O)NN (stereo unspecified) (Boc-LGGAGC(Trt)K(Boc)NFF-NHNH2; configuration not given here) ?
Completion: 239 to 242 °C
